Test system: Neuropilin-2 / VEGF-C interaction (human)
Test: small molecules blocking Neuropilin-2/VEGF-C interaction – biochemical, microplate binding format, z-score (AID 743281); further: test concentration not given here
Conditions: microplate NRP2/VEGF-C binding assay; active compounds read low
Active and inactive are the calls of the source. How the calls were made is not given here.
Kindly state z-score for each of the entries shown.

get_value(item= CC[N+](C)(CC)CCOC(=O)C(O)(c1ccccc1)C1CCCCC1 (stereo unspecified) , readout=z-score) returns -0.249 (inactive)

get_value(item= CC(C)NCC(O)COc1ccc(CCOCC2CC2)cc1 (stereo unspecified) , readout=z-score) returns -0.0183 (inactive)

get_value(item= CN1CCN(CCCN2c3ccccc3Sc3ccc(Cl)cc32)CC1 , readout=z-score) returns 0.742 (inactive)

get_value(item= CCN(CC)CC1CCCCN1CC(=O)N1c2ccccc2C(=O)Nc2cccnc21 (stereo unspecified) , readout=z-score) returns -0.131 (inactive)

get_value(item= CC(C)(O)c1ccccc1CC[C@@H](SCC1(CC(=O)O)CC1)c1cccc(/C=C/c2ccc3ccc(Cl)cc3n2)c1 , readout=z-score) returns -0.15 (inactive)

get_value(item= Cc1[nH]c(=O)c(C#N)cc1-c1ccncc1 , readout=z-score) returns 0.188 (inactive)

get_value(item= CC(C)(C)C(O)/C=C/c1ccc2c(c1)OCO2 (stereo unspecified) , readout=z-score) returns -0.389 (inactive)

get_value(item= Oc1ccc(C2CNCCc3c2cc(O)c(O)c3Cl)cc1 (stereo unspecified) , readout=z-score) returns 0.0254 (inactive)

get_value(item= CN1CCN(C2=Nc3ccccc3Oc3ccc(Cl)cc32)CC1 , readout=z-score) returns -0.0658 (inactive)

get_value(item= COc1ccc2nc(S(=O)Cc3ncc(C)c(OC)c3C)[nH]c2c1 (stereo unspecified) , readout=z-score) returns -0.241 (inactive)

Attribution: PubChem BioAssay
